meta.source: patent US20110142868A1

Study Target: recombinant human PAD2 (human, UniProt Q9Y2J8 1-665)
Sequence (Q9Y2J8 whole entry): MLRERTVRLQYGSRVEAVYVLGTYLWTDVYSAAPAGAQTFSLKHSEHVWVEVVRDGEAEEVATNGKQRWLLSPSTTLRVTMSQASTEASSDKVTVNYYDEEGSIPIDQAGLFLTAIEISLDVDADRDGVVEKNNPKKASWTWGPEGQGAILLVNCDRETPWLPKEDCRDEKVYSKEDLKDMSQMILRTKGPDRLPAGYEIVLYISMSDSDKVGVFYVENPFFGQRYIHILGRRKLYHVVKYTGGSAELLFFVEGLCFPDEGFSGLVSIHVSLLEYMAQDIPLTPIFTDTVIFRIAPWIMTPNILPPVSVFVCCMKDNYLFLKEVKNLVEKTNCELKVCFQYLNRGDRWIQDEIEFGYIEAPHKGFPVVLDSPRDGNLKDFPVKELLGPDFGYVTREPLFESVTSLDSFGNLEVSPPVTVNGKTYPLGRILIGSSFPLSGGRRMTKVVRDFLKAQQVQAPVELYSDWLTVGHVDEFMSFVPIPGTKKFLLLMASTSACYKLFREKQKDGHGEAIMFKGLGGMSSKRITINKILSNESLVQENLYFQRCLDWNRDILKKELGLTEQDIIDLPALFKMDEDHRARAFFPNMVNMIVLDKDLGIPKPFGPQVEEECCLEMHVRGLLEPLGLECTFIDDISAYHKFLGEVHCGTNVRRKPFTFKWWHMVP
Test Summary: cell-based or functional assay
Square brackets hold non-standard residues; d marks the D form. Orn(fluoroacetimidoyl) = N=C(CF)NCCC[C@H](N)C(=O)O
// reported conversion of 0708-30 by PAD2, 50 µM inhibitor (0 µM: 68) for each item listed
Recorded Metric: conversion of 0708-30 by PAD2, 50 µM inhibitor (0 µM: 68) (%)

1) Ac-KHD[Orn(fluoroacetimidoyl)]DFL-NH2 (SMILES CC(=O)N[C@@H](CCCCN)C(=O)N[C@@H](Cc1c[nH]cn1)C(=O)N[C@@H](CC(=O)O)C(=O)N[C@@H](CCCNC(=N)CF)C(=O)N[C@@H](CC(=O)O)C(=O)N[C@@H](Cc1ccccc1)C(=O)N[C@@H](CC(C)C)C(N)=O) [0748-25FA]	20
2) Ac-KWH[Orn(fluoroacetimidoyl)]DFF-NH2 (SMILES CC(=O)N[C@@H](CCCCN)C(=O)N[C@@H](Cc1c[nH]c2ccccc12)C(=O)N[C@@H](Cc1c[nH]cn1)C(=O)N[C@@H](CCCNC(=N)CF)C(=O)N[C@@H](CC(=O)O)C(=O)N[C@@H](Cc1ccccc1)C(=O)N[C@@H](Cc1ccccc1)C(N)=O) [0748-09FA]	6
3) Ac-KFD[Orn(fluoroacetimidoyl)]DFI-NH2 (SMILES CC[C@H](C)[C@H](NC(=O)[C@H](Cc1ccccc1)NC(=O)[C@H](CC(=O)O)NC(=O)[C@H](CCCNC(=N)CF)NC(=O)[C@H](CC(=O)O)NC(=O)[C@H](Cc1ccccc1)NC(=O)[C@H](CCCCN)NC(C)=O)C(N)=O) [0743-58FA]	8
4) Ac-KLH[Orn(fluoroacetimidoyl)]EWM-NH2 (SMILES CSCC[C@H](NC(=O)[C@H](Cc1c[nH]c2ccccc12)NC(=O)[C@H](CCC(=O)O)NC(=O)[C@H](CCCNC(=N)CF)NC(=O)[C@H](Cc1c[nH]cn1)NC(=O)[C@H](CC(C)C)NC(=O)[C@H](CCCCN)NC(C)=O)C(N)=O) [0748-17FA]	35
5) Ac-HFD[Orn(fluoroacetimidoyl)]EWI-NH2 (SMILES CC[C@H](C)[C@H](NC(=O)[C@H](Cc1c[nH]c2ccccc12)NC(=O)[C@H](CCC(=O)O)NC(=O)[C@H](CCCNC(=N)CF)NC(=O)[C@H](CC(=O)O)NC(=O)[C@H](Cc1ccccc1)NC(=O)[C@H](Cc1c[nH]cn1)NC(C)=O)C(N)=O) [0748-01FA]	36
